meta.source: ChEMBL document CHEMBL1949630

# Test system: Lysosomal Pro-X carboxypeptidase (Mus musculus, UniProt Q7TMR0)
# Sequence (Q7TMR0 whole entry): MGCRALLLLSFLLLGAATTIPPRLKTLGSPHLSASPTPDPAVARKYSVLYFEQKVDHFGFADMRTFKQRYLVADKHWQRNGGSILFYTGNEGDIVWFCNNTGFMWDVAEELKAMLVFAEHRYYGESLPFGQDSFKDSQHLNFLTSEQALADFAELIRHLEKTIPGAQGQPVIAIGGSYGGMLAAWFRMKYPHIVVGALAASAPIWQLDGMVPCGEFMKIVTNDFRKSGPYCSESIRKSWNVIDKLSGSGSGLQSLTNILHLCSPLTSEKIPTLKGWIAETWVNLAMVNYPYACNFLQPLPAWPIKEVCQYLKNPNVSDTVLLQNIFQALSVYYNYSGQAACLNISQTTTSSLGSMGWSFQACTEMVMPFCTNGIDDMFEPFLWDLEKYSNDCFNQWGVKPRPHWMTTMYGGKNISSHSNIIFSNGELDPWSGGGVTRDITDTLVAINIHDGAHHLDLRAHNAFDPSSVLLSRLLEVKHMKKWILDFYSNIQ
# Experimental details: Inhibition of mouse PrCP
pIC50: −log10 of the molar value.
Use 9 as the dividing line for pIC50, with the line itself on the Condition met side and lower values as Condition not met.

Solved cases (5 shown):
O=S(=O)(c1ccc(C(F)(F)F)cn1)N1CCC2(CC1)OC(c1cc(Cl)cc[n+]1[O-])c1ccccc12 (racemic): Condition met
CC(C)(O)C(c1ccccc1)N1CCC2(CC1)OC(c1cc(Cl)cc(Cl)c1)c1cccnc12 (racemic): Condition not met
CC(c1ccc(F)cn1)N1CCC2(CC1)OC(c1cc(Cl)ccn1)c1cccnc12 (racemic): Condition not met
Clc1cc(Cl)cc(C2OC3(CCN(Cc4ccc(N5CCCC5)cn4)CC3)c3ccccc32)c1 (racemic): Condition not met
OCC(c1ccccc1)N1CCC2(CC1)OC(c1cc(Cl)cc(Cl)c1)c1cccnc12 (racemic): Condition not met

Determine whether measured pIC50 meets or exceeds 9 for [O-][n+]1ccc(Cl)cc1C1OC2(CCN(Cc3ccc(OC(F)(F)F)cc3)CC2)c2ccccc21 (single isomer, unassigned) Condition met

Determine whether measured pIC50 meets or exceeds 9 for CC(c1ccc(F)cn1)N1CCC2(CC1)OC(c1cc(Cl)cc(Cl)c1)c1ccccc12 (racemic) Condition met

Determine whether measured pIC50 meets or exceeds 9 for Fc1ccc(CN2CCC3(CC2)OC(c2cc(Cl)cc(Cl)c2)c2ccccc23)nc1 (stereo unspecified) Condition not met

Determine whether measured pIC50 meets or exceeds 9 for Clc1cc(Cl)cc(C2OC3(CCN(Cc4cc5ccccc5o4)CC3)c3ccccc32)c1 (racemic) Condition not met

Determine whether measured pIC50 meets or exceeds 9 for CC(C)(c1ccc(OC(F)(F)F)cc1)N1CCC2(CC1)OC(c1cc(Cl)ccn1)c1cccnc12 (racemic) Condition met

Determine whether measured pIC50 meets or exceeds 9 for FC(F)(F)Oc1ccc(CN2CCC3(CC2)OC(c2ccccn2)c2ccccc23)cc1 (racemic) Condition not met

Determine whether measured pIC50 meets or exceeds 9 for FC(F)(F)Oc1ccc(CN2CCC3(CC2)OC(c2cc(Cl)ccn2)c2cccnc23)cc1 (racemic) Condition not met

Determine whether measured pIC50 meets or exceeds 9 for FC(F)(F)Oc1ccc(CN2CCC3(CC2)OC(c2cc(Cl)cc(Cl)c2)c2cnccc23)cc1 (racemic) Condition not met

Determine whether measured pIC50 meets or exceeds 9 for FC(F)(F)Oc1ccc(CN2CCC3(CC2)OC(c2ccc(Cl)cn2)c2ccccc23)cc1 (racemic) Condition not met

Determine whether measured pIC50 meets or exceeds 9 for FC(F)(F)Oc1ccc(CN2CCC3(CC2)OC(c2cc(Cl)ccn2)c2ccccc23)cc1 (stereo unspecified) Condition met
